# Test system: SK-BR-3 (human breast cancer cell)
# PROTOCOL_DETAILS: MTT inhibition of proliferation, SK-BR-3
# Assay type: cell-based
# STATED_CONDITIONS: Homo sapiens; SK-BR-3, MTT, 48 h; read-out: Inhibitory Activity on the Proliferation of Tumor Cells (IC50 ± SD) SK-BR-3
pIC50: −log10 of the molar value.
PARAMETER: pIC50

SMI | PARAMETER | MEASURED_RESULT
COc1cc2ncnc(Nc3ccc(NCc4ccc(F)cc4)cc3)c2cc1OCCN1CCCC1 | pIC50 | 4.99

###

# Tested on: MCF-7 (human breast cancer cell)
# PROTOCOL_DETAILS: MTT inhibition of proliferation, MCF-7
# Format: cell-based
# STATED_CONDITIONS: MCF7, MCF-7, MTT, 48 h, read-out: Inhibitory Activity on the Proliferation of Tumor Cells (IC50 ± SD) MCF-7
PARAMETER: IC50 (µM)

MOLECULE | TGT | MEASURED_RESULT
COc1cc2ncnc(Nc3ccc(NCc4ccc(F)cc4)cc3)c2cc1OCCN1CCCC1 [Compound 8] | MCF-7 (human breast cancer cell) | 16.1
